Values from ChEMBL document CHEMBL3286172

Tested on: Human immunodeficiency virus 1
experiment description: Fold resistance, ratio of EC50 for HIV-1 harboring NNTRI-resistant reverse transcriptase Y181C mutant infected in human MT4 cells to EC50 for wild type HIV-1 NL4-3 infected in human MT4 cells
Assay type: functional
Strictly below 400 in Ratio EC50: Condition met. Otherwise: Condition not met.

Worked examples follow.
compound	assigned label
CC(c1cc(=O)[nH]c(SC2CCCC2)n1)c1c(F)cccc1Cl (racemic)	Condition not met
CCC(C)Sc1nc(O)c(C)c(C(C)c2c(F)cccc2F)n1 (racemic)	Condition met
CCCCSc1nc(Cc2c(F)cccc2Cl)cc(=O)[nH]1	Condition met
O=c1cc(Cc2c(F)cccc2Cl)nc(SC2CCCC2)[nH]1	Condition met
CC[C@@H](C)Sc1nc([C@H](C)c2c(F)cccc2Cl)cc(=O)[nH]1	Condition not met

Prompt: Hi there! Is Ratio EC50 for CCC(C)Sc1nc(C(C)c2c(F)cccc2Cl)cc(=O)[nH]1 (racemic) below 400, do you know?
Completion: Condition not met

Prompt: Hi there! Is Ratio EC50 for CC(C)Sc1nc(C(C)c2c(F)cccc2Cl)cc(=O)[nH]1 (racemic) below 400, do you know?
Completion: Condition not met

Prompt: Hi there! Is Ratio EC50 for Cc1c(C(C)c2c(F)cccc2Cl)nc(SC2CCCC2)[nH]c1=O (racemic) below 400, do you know?
Completion: Condition not met

---

experiment description: Selectivity index, ratio of CC50 for human MT4 cells to EC50 for wild type HIV-1 NL4-3 infected in human MT4 cells
Type: toxicity, cell-based
cond: read-out: Ratio CC50/EC50
test readout: selectivity ratio

Here is how some compounds turned out for selectivity ratio.
compound	test readout	result
CCC(C)Sc1nc(C(CC)c2c(F)cccc2Cl)c(C)c(=O)[nH]1 (racemic)	selectivity ratio	> 56
CCCCSc1nc(C(C)c2c(F)cccc2Cl)c(C)c(=O)[nH]1 (racemic)	selectivity ratio	> 5000
CCC(C)Sc1nc(O)c(C)c(C(C)c2c(F)cccc2F)n1 (racemic)	selectivity ratio	> 3330
CCCCSc1nc(C(C)c2c(F)cccc2Cl)c(CC)c(=O)[nH]1 (racemic)	selectivity ratio	> 47

// field: selectivity ratio; key: CCCSc1nc(C(CC)c2c(F)cccc2Cl)c(C)c(=O)[nH]1 (racemic) ; value = > 115

---

Test system: Human immunodeficiency virus 1
experiment description: Antiviral activity against HIV-1 harboring NNTRI-resistant reverse transcriptase K103N mutant infected in human MT4 cells assessed as inhibition of virus-induced cytopathic effect by MTT method
Assay type: functional, organism-based
cond: Human immunodeficiency virus 1, MT4
Listed below: pEC50 values for each entry.
Scale: pEC50 equals -log10([C]), with [C] in mol/L.

Here is how some compounds turned out for pEC50.
compound	pEC50
CC(c1cc(=O)[nH]c(SC2CCCC2)n1)c1c(F)cccc1Cl (racemic)	6.05
Cc1c(O)nc(SC(C)C)nc1C(C)c1c(F)cccc1F (racemic)	6.57
CCC(C)Sc1nc(C(C)c2c(F)cccc2Cl)cc(=O)[nH]1 (racemic)	6.00
CCCSc1nc(Cc2c(F)cccc2Cl)cc(=O)[nH]1	4.73

// field: pEC50; key: Cc1c([C@H](C)c2c(F)cccc2Cl)nc(SC(C)C)[nH]c1=O ; value = 8.00

---

System: Human immunodeficiency virus 1
experiment description: Fold resistance, ratio of ID50 for HIV-1 recombinant NNTRI-resistant reverse transcriptase Y181I mutant to ID50 for wild type HIV-1 recombinant reverse transcriptase
Listed below: Ratio values for each entry.

Here is how some molecules turned out for Ratio.
molecule	target under test	Ratio
CCC(C)Sc1nc(C(C)c2c(F)cccc2Cl)cc(=O)[nH]1 (racemic)	Human immunodeficiency virus 1	2640
CCc1c(C(C)c2c(F)cccc2F)nc(SC2CCCC2)[nH]c1=O (racemic)	Human immunodeficiency virus 1	900
CCCCSc1nc(C(C)c2c(F)cccc2F)c(CC)c(=O)[nH]1 (racemic)	Human immunodeficiency virus 1	1000

// field: Ratio; key: CCCCSc1nc(C(C)c2c(F)cccc2Cl)c(C)c(=O)[nH]1 (racemic) ; value = 20000

// field: Ratio; key: CC[C@@H](C)Sc1nc([C@H](C)c2c(F)cccc2Cl)cc(=O)[nH]1 ; value = 3750
